# Test system: Candida albicans
# test_method_notes: In vitro antifungal activity against Candida albicans CY1002 in the presence of 80% calf serum
# Type: functional, organism-based
assay_metric: IC50 (µg/mL)

CCCCCCCCCCCCC[C@@H]1CC(=O)N[C@@H]([C@@H](C)O)C(=O)N[C@H](C)C(=O)N[C@@H](Cc2ccc(O)cc2)C(=O)N[C@@H](C(C)C)C(=O)N2C[C@H](O)C[C@H]2C(=O)N[C@@H]([C@@H](C)O)C(=O)N[C@@H]([C@@H](C)O)C(=O)N2CC[C@H](O)[C@H]2C(=O)N[C@@H]([C@H](O)CC(N)=O)C(=O)NCC(=O)N[C@H]([C@@H](C)O)C(=O)N[C@@H](CCCN(CCN)CCN)C(=O)O1; 0.42

These entries and their values trace back to ChEMBL document CHEMBL1134747.
